Cited source for all entries: the supplement of paper PMC10567573

Consider the following variants and their measured protein stability index readings.
B1: ZNF649 (parent)
chain: YQAGKPDALTKLEQGEPLWTLEDE

variants of: B1; assay: protein stability index of a GFP-peptide fusion (GPS, HEK-293T) (PSI 1-6); higher = more stable; conditions: c terminus: a fixed tail appended;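 further: lentivirally expressed fusions sorted by FACS into six bins by GFP to DsRed ratio, PSI derived from sequencing read proportions per bin multiplied by bin number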
Number only, no unit.

Completed entries (count: 3):
YQAGMPDALTKLEQGEPLWTLEDE = 4.38
YQAGKPDALTLLEQGEPLWTLEDE = 4.23
YQAGKPDALTKLEFGEPLWTLEDE = 3.89

Field protein stability index (entry YQAGKPDALTKLEQGEPLWSLEDE ) reads 3.73

Field protein stability index (entry YQAGKNDALTKLEQGEPLWTLEDE ) reads 4.15

Field protein stability index (entry YQAGKPDALTKLEQHEPLWTLEDE ) reads 4.31

Field protein stability index (entry YQAGKPDAETKLEQGEPLWTLEDE ) reads 4.93

Field protein stability index (entry YQAGKPDALTKLEQGEPLWTLEDG ) reads 3.87

Field protein stability index (entry YQAGKPDALTKLEQGEILWTLEDE ) reads 3.22

Field protein stability index (entry YQAGKPDALTKLEQGEPLWTLEDS ) reads 4.27

Field protein stability index (entry YQAGKPDACTKLEQGEPLWTLEDE ) reads 4.63
